System: HOP-62 NSCLC
Test: NCI tumour cell line growth inhibition, 48 h; in the data active means GI50 below about 0.43 µM; inactive means the rest
Mark one answer only. Choices: true (1) for active, false (0) for inactive

IN: Would you mind telling me which call this test gave CCCCCCN(CCCCCC)CC(O)c1cccc2ccc(Cl)cc12 (stereo not given) ?
OUT: false (0)

IN: Would you mind telling me which call this test gave "C[C@H](NC(=O)CCC(F)(F)F)C(=O)N[C@@H]1C(=O)N(CCO)c2ncccc2-c2ccccc21" ?
OUT: false (0)

IN: Would you mind telling me which call this test gave "CCNC(=O)Oc1ccc(/C(=C(\C)c2ccc(Cl)cc2)c2ccc(OCCN3CCCCC3)cc2)cc1" ?
OUT: false (0)

IN: Would you mind telling me which call this test gave "CC[C@@]1(O)C(=O)OCc2c1cc1n(c2=O)Cc2cc3c(NC(C)=O)c(O)ccc3nc2-1" ?
OUT: true (1)

IN: Would you mind telling me which call this test gave "COc1cc(C(=O)/C=C/c2c(C(F)(F)F)nc3sccn23)cc(OC)c1OC" ?
OUT: false (0)

IN: Would you mind telling me which call this test gave Cc1cc2c(cc1Cl)SC1=NN(C)C(c3ccccc3O)N1S2(=O)=O (stereo not given) ?
OUT: false (0)

IN: Would you mind telling me which call this test gave "CCOc1cccnc1/C=N/NC(N)=S" ?
OUT: false (0)

IN: Would you mind telling me which call this test gave "CC(C)(C)c1ccc(S(=O)(=O)N[C@H]2CC[C@H]3[C@@H]4CCc5cc(O)ccc5[C@H]4CC[C@]23C)cc1" ?
OUT: false (0)

IN: Would you mind telling me which call this test gave "Nc1ncnc2c1ncn2Cc1ccc(C23CC4CC(CC(C4)C2)C3)c(O)c1" ?
OUT: false (0)

IN: Would you mind telling me which call this test gave "C#Cc1ccc(-n2c(/C=C/c3cc(OC)c(OC)c(OC)c3)nc3ncccc3c2=O)cc1" ?
OUT: false (0)

---

Tested on: HCC-2998 colon
Assay: NCI tumour cell line growth inhibition, 48 h; in the data active = GI50 below about 0.43 µM; inactive = the rest
Mark one answer only. Choices: t (active), f (inactive)

IN: Would you mind telling me which call this test gave "C#Cc1ccc(-n2c(/C=C/c3cc(OC)c(OC)c(OC)c3)nc3ncccc3c2=O)cc1" ?
OUT: f

IN: Would you mind telling me which call this test gave C=C(C)[C@]12CC(C)C34OC(/C=C\C=C\CCCCCCCCC)(O[C@@H]1[C@@H]3[C@@H]1O[C@]1(CO)[C@@H](O)[C@]1(O)C(=O)C(C)=C[C@@H]41)O2 (some centres not stated) ?
OUT: t

IN: Would you mind telling me which call this test gave "COc1ccc(N=C2NN=C(c3c[nH]c4ccccc34)CS2)cc1OC" ?
OUT: f

IN: Would you mind telling me which call this test gave "COc1cc(/C=C\c2cccnc2Nc2ccccc2)cc(OC)c1OC" ?
OUT: f

IN: Would you mind telling me which call this test gave "O=C1/C(=C/c2ccccc2)CN(C(=O)Oc2ccc([N+](=O)[O-])cc2)C/C1=C\c1ccccc1" ?
OUT: f

IN: Would you mind telling me which call this test gave "Cn1cc(-c2nn3cc(-c4cccs4)nc3s2)c2cc(F)ccc21" ?
OUT: f

IN: Would you mind telling me which call this test gave "O=c1c2cc(F)ccc2sc2c(NCCCN3CCCC3)nc3ccccc3c12" ?
OUT: f

IN: Would you mind telling me which call this test gave CCOC(=O)C1=C(c2ccccc2)N(Cc2ccccc2)C2(O)C=CC(=O)C3C(=O)N(c4ccccc4)C(=O)C132 (configuration not stated) ?
OUT: f

IN: Would you mind telling me which call this test gave CCOC(=O)Cc1csc(NC(=O)C(OC(=O)c2ccc(N)cc2)c2ccccc2)n1 (configuration not stated) ?
OUT: f

IN: Would you mind telling me which call this test gave "CC[C@@]1(OC(=O)CN(C)C)C(=O)OCc2c1cc1n(c2=O)Cc2cc3ccccc3nc2-1" ?
OUT: t

IN: Would you mind telling me which call this test gave COc1ccc(CC2C(=O)NC(C)C(=O)N(C)C3Cc4ccc(cc4)Oc4cc(ccc4O)CC(C(=O)NC(C)C(=O)NC(C)C(=O)N2C)N(C)C3=O)cc1 (configuration not stated) ?
OUT: t

IN: Would you mind telling me which call this test gave "O=c1[nH]c(-c2ccccn2)nc2sc3c(c12)CCCCCC3" ?
OUT: f

IN: Would you mind telling me which call this test gave "CCCCCCCCCCCCCCCCCC1=NC(C)(C)CN1CCO" ?
OUT: f

IN: Would you mind telling me which call this test gave "Cn1c(COC(=O)NCCN2CCOCC2)nc2c(N3CCOCC3)nc(-c3ccccc3)nc21" ?
OUT: f

IN: Would you mind telling me which call this test gave "C#Cc1cccc(Nc2ncnc3ccc(-c4cncc(NS(C)(=O)=O)c4)cc23)c1" ?
OUT: f

IN: Would you mind telling me which call this test gave "CN1CCN(C(=S)SCN2C(=O)c3ccccc3S2(=O)=O)CC1" ?
OUT: f

IN: Would you mind telling me which call this test gave "Cc1ccc(OCCCCCCNCCO)c(C)c1" ?
OUT: f

---

Test system: NCI-H522 lung
Assay: NCI tumour cell line growth inhibition, 48 h; in the data active means GI50 below about 0.43 µM; inactive means the rest
Mark one answer only. Choices: 1 (yes) (active), 0 (no) (inactive)

IN: Would you mind telling me which call this test gave "CC(C)n1nc(C#Cc2cccc(NC(=O)c3cccc(C(F)(F)F)c3)c2)c2c(N)ncnc21" ?
OUT: 0 (no)

IN: Would you mind telling me which call this test gave "Cn1cc(-c2nn3cc(-c4cccs4)nc3s2)c2cc(F)ccc21" ?
OUT: 0 (no)

IN: Would you mind telling me which call this test gave "C#Cc1cccc(Nc2ncnc3ccc(-c4cncc(NS(C)(=O)=O)c4)cc23)c1" ?
OUT: 0 (no)

IN: Would you mind telling me which call this test gave "O=C(Nc1ccccc1)Nc1ccccc1CNc1nc(Nc2ccc(OCCN3CCCC3)cc2)ncc1Cl" ?
OUT: 0 (no)

IN: Would you mind telling me which call this test gave "N#Cc1ccc(N2Cc3cc(Cl)ccc3OC3=C2C(=O)N(Cc2ccccc2)C3=O)cc1" ?
OUT: 1 (yes)

IN: Would you mind telling me which call this test gave "CCOc1cccnc1/C=N/NC(N)=S" ?
OUT: 0 (no)

IN: Would you mind telling me which call this test gave "C=C(C)[C@@H]1CCC[C@]2(C(=O)O)CC[C@]3(C)[C@@H](CC[C@@H]4[C@@]5(C)C/C(=C/c6ccncc6)C(=O)C(C)(C)[C@@H]5CC[C@]43C)[C@@H]12" ?
OUT: 0 (no)

IN: Would you mind telling me which call this test gave "CCSc1nc(N)c2cnn(C)c2n1" ?
OUT: 0 (no)

IN: Would you mind telling me which call this test gave "CC(=O)Nc1ccc(-n2cnc3cc(-c4ccc(OCCN5CCCCC5)cc4)ccc32)cc1" ?
OUT: 0 (no)

---

Tested on: MOLT-4 leukemia
Assay: NCI tumour cell line growth inhibition, 48 h
Peptide text beside a SMILES is read from it. * marks the point of attachment. Boc = CC(C)(C)OC(=O)*
property.measured: TGI

IN: Enter reported TGI observed with MOLT-4 leukemia for "O=C(O)CCCc1nc2c(n1-c1ccccc1)C(=O)c1ccccc1C2=O"
OUT: > 100 µM

IN: Enter reported TGI observed with MOLT-4 leukemia for "COc1cc(/C=C2\C[C@H]3[C@@H]4CC=C5C[C@@H](N6CCCC6)CC[C@]5(C)[C@H]4CC[C@]3(C)[C@H]2OC(C)=O)cc(OC)c1OC"
OUT: 22.5 µM

IN: Enter reported TGI observed with MOLT-4 leukemia for CCOC(=O)Cc1csc(NC(=O)C(OC(=O)c2ccc(N)cc2)c2ccccc2)n1 (configuration not stated)
OUT: > 100 µM

IN: Enter reported TGI observed with MOLT-4 leukemia for "CC(=O)Nc1ncc2c(n1)-c1ccccc1OC2"
OUT: > 100 µM

IN: Enter reported TGI observed with MOLT-4 leukemia for "N#CC(=C=[N-])[n+]1ccc(Cl)cc1"
OUT: > 100 µM

IN: Enter reported TGI observed with MOLT-4 leukemia for CCCCCCCCCCCCCCCC(=O)OCC1OC(n2ccc(N)nc2=O)C(O)C1O (configuration not stated)
OUT: 44.8 µM

IN: Enter reported TGI observed with MOLT-4 leukemia for C=C(CCC(C(=O)O)C1CCC2(C)C3=C(CCC12C)C1(C)CCC(O)C(C)(C)C1CC3)C(C)C (configuration not stated)
OUT: > 100 µM

IN: Enter reported TGI observed with MOLT-4 leukemia for COC1=CC2(C=CC1=O)CCN=c1c(O)c3c(c(O)c12)=NC=N3 (configuration not stated)
OUT: > 100 µM

IN: Enter reported TGI observed with MOLT-4 leukemia for COC1(OC)N=C(N)C2(C#N)/C(=N/N(C)C)CC(C)C12C#N (configuration not stated)
OUT: > 100 µM

IN: Enter reported TGI observed with MOLT-4 leukemia for CC1(C)CC2(C)OC2C2(C1)N=NC(=Nc1ccccc1)O2 (configuration not stated)
OUT: 9.96 µM

IN: Enter reported TGI observed with MOLT-4 leukemia for "CSC1(SC)CCCCCCCCCCC1"
OUT: > 100 µM

IN: Enter reported TGI observed with MOLT-4 leukemia for CC1SC2(CCCCC2)N(NC(=O)c2[nH]c3ccc(F)cc3c2-c2ccccc2)C1=O (configuration not stated)
OUT: > 100 µM

IN: Enter reported TGI observed with MOLT-4 leukemia for Clc1ccccc1C1=NN(c2ccccc2)C2c3cc(Br)ccc3OCC12 (configuration not stated)
OUT: > 100 µM

IN: Enter reported TGI observed with MOLT-4 leukemia for "CN(C)CCNc1nc2ccccc2c2c1C(=O)c1ccccc1-2"
OUT: 0.098 µM

IN: Enter reported TGI observed with MOLT-4 leukemia for "COc1cc(C(=O)/C=C/c2c(C(F)(F)F)nc3sccn23)cc(OC)c1OC"
OUT: 5.81 µM

IN: Enter reported TGI observed with MOLT-4 leukemia for "COC(=O)Nc1nc2ccc(Sc3ccc(NC(=O)Nc4cc(C(F)(F)F)ccc4F)cc3)cc2[nH]1"
OUT: 17 µM

IN: Enter reported TGI observed with MOLT-4 leukemia for "Cc1cccc(N2CCN(S(=O)(=O)c3ccc(Cl)cc3)C2=N)c1C"
OUT: > 100 µM

IN: Enter reported TGI observed with MOLT-4 leukemia for "CC(C)n1nc(C#Cc2cccc(NC(=O)c3cccc(C(F)(F)F)c3)c2)c2c(N)ncnc21"
OUT: 61.3 µM

IN: Enter reported TGI observed with MOLT-4 leukemia for CSCCC(NC(=O)C(CC(C)C)NC(=O)CNC(=O)OC(C)(C)C)C(=O)N(C)C (stereo not drawn) (Boc-Gly-Leu-Met-NMe2; configuration not given here)
OUT: > 100 µM

IN: Enter reported TGI observed with MOLT-4 leukemia for "COc1cc(CC(=O)c2ccc3c(c2)OCO3)cc(OC)c1OC"
OUT: > 100 µM

IN: Enter reported TGI observed with MOLT-4 leukemia for "COC(=O)c1cc2c3c(c(C(C)=O)c(OC)c2[nH]1)NCC3"
OUT: > 50 µM

IN: Enter reported TGI observed with MOLT-4 leukemia for C=CC1(CCC(Br)C(C)(C)Cl)CO1 (configuration not stated)
OUT: > 10 µM

IN: Enter reported TGI observed with MOLT-4 leukemia for "O=c1c2cc(F)ccc2sc2c(NCCCN3CCCC3)nc3ccccc3c12"
OUT: 4.22 µM

IN: Enter reported TGI observed with MOLT-4 leukemia for "Cc1cnc2[nH]c(-c3ccccc3)cc(=O)c2c1"
OUT: > 14.4 µM

IN: Enter reported TGI observed with MOLT-4 leukemia for COC(=O)C(=O)C(C(=O)C(=O)Nc1ccccc1C(N)=O)c1nc2ccc(C(=O)c3ccccc3)cc2[nH]c1=O (configuration not stated)
OUT: > 100 µM

IN: Enter reported TGI observed with MOLT-4 leukemia for "Cc1cccc(N2C(=O)/C(=C/c3ccc(N(CCC#N)CCC#N)cc3C)N=C2c2cc([N+](=O)[O-])ccc2Cl)c1"
OUT: > 100 µM

IN: Enter reported TGI observed with MOLT-4 leukemia for "Cc1ns/c(=N\C(=S)N(C)C)n1C"
OUT: > 100 µM

IN: Enter reported TGI observed with MOLT-4 leukemia for "O=C(OCc1nc2ccc(Br)cc2c(=O)n1-c1ccccc1)c1ccccc1O"
OUT: > 100 µM

IN: Enter reported TGI observed with MOLT-4 leukemia for COc1ccc(N(Cc2cc(OC)c(OC)c(OC)c2)C2OC(=O)c3ccccc32)cc1 (configuration not stated)
OUT: > 100 µM

IN: Enter reported TGI observed with MOLT-4 leukemia for COC(=O)C1=C(O)C(C(=O)OC)[C@@]2(O)[C@@H](C(=O)OC)C(c3ccc(OC(=O)C(CC(C)C)NC(C)=O)cc3)C[C@@H]1[C@@H]2C(=O)OC (some centres not stated)
OUT: 97.2 µM

IN: Enter reported TGI observed with MOLT-4 leukemia for "CC[C@@]1(O)C(=O)OCc2c1cc1n(c2=O)Cc2cc3c(NC(C)=O)c(O)ccc3nc2-1"
OUT: 0.968 µM

IN: Enter reported TGI observed with MOLT-4 leukemia for "Cc1c(-c2coc(-c3ccc(Cl)cc3)n2)c(=O)n(-c2ccccc2)n1C"
OUT: > 100 µM

IN: Enter reported TGI observed with MOLT-4 leukemia for "O=C(CN=Cc1cccs1)CSC(c1ccccc1)c1ccccc1"
OUT: 69.1 µM

IN: Enter reported TGI observed with MOLT-4 leukemia for O=C(NO)C(O)C(O)C(O)C(O)CO (configuration not stated)
OUT: > 100 µM

IN: Enter reported TGI observed with MOLT-4 leukemia for "Clc1ncc(C(Cl)(Cl)Cl)nc1-c1ccccc1"
OUT: 28.9 µM

IN: Enter reported TGI observed with MOLT-4 leukemia for "c1csc(-c2ccc(-c3ccc(-c4cccs4)s3)s2)c1"
OUT: > 100 µM

IN: Enter reported TGI observed with MOLT-4 leukemia for "O=C(O)c1ccc(Nc2cnc3ccc(C(F)(F)F)cc3n2)cc1"
OUT: 44.5 µM

IN: Enter reported TGI observed with MOLT-4 leukemia for "CCOc1ccc(NC(=S)/N=C/C(C(=O)Nc2ccccc2C)=C(\C)O)cc1"
OUT: > 100 µM

IN: Enter reported TGI observed with MOLT-4 leukemia for "OCCCCC#Cc1ccccc1C#Cc1cnccn1"
OUT: > 100 µM

IN: Enter reported TGI observed with MOLT-4 leukemia for "Cc1ccc(S(=O)(=O)NC(=O)NS(=O)(=O)O)cc1"
OUT: > 100 µM

IN: Enter reported TGI observed with MOLT-4 leukemia for "O=C(Nc1ccccc1)Nc1ccccc1CNc1nc(Nc2ccc(OCCN3CCCC3)cc2)ncc1Cl"
OUT: 20 µM

IN: Enter reported TGI observed with MOLT-4 leukemia for CC(C)=C1CCC(CN2CCCC2)C1=O (configuration not stated)
OUT: 44.3 µM

Cited source for all entries: PubChem BioAssay (NCI)
